All figures here come from ChEMBL document CHEMBL1143213.

Test system: MCF7
Assay: Antiproliferative activity against human MCF7 cells
Assay type: functional, cell-based
Details: Homo sapiens, MCF7
I'd be grateful if you could share measured IC50 for these entries.
Report the figure in µM without appending any unit label.

Query: Kindly indicate its recorded IC50. Item: O=c1[nH]cc(F)c(=O)n1C1CN(S(=O)(=O)c2ccc([N+](=O)[O-])cc2)c2ccccc2CO1 (stereo not given)
Response: 19.8

Query: Hello, please tell me recorded IC50 for this one: O=C(OCC1c2ccccc2-c2ccccc21)N1CC(n2cnc3ncnc(O)c32)OCc2ccccc21 (stereo not given)
Response: 53.6

Query: Give the reported value of IC50 for this record: COc1ccc2c(c1)COC(n1cc(F)c(=O)[nH]c1=O)CO2 (stereo not given)
Response: 1.25

Query: Respond only with IC50 recorded for O=c1ccn(C2CN(S(=O)(=O)c3ccccc3[N+](=O)[O-])c3ccccc3CO2)c(=O)[nH]1 (stereo not given)
Response: 45.2

====

System: MCF7
Test: Antiproliferative activity against human MCF7 cells
Format: functional, cell-based
Conditions: Homo sapiens, MCF7
Just a reminder that ties go to NOT MET: only IC50 strictly below 40 µM counts as MET.

Query: Criterion: IC50 strictly below 40 µM. Is it met by Clc1ncnc2ncn(C3COc4ccccc4CO3)c12 (centres undefined) ?
Response: MET

Query: Take the molecule O=[N+]([O-])c1ccc(S(=O)(=O)N2CC(n3cnc4ncnc(Cl)c43)OCc3ccccc32)cc1 (centres undefined) and say whether its IC50 is less than 40 µM.
Response: MET

Query: Bench note: check whether Clc1nc(Cl)c2ncn(C3COc4ccccc4CO3)c2n1 (centres undefined) shows IC50 below 40 µM
Response: MET

Query: Please determine if COC(CN(c1ccccc1CO)S(=O)(=O)c1ccc([N+](=O)[O-])cc1)n1cc(F)c(=O)[nH]c1=O (centres undefined) is below 40 µM in terms of IC50.
Response: NOT MET

Query: Check if IC50 falls below 40 µM for O=[N+]([O-])c1ccccc1S(=O)(=O)N1CC(n2cnc3ncnc(O)c32)OCc2ccccc21 (centres undefined) .
Response: MET

Query: I'd appreciate it if you could check whether COC(CN(c1ccccc1CO)S(=O)(=O)c1ccccc1[N+](=O)[O-])n1cc(F)c(=O)[nH]c1=O (centres undefined) has IC50 smaller than 40 µM.
Response: NOT MET

Query: Please let me know if COC(CN(c1ccccc1CO)S(=O)(=O)c1ccc([N+](=O)[O-])cc1)n1cnc2c(Cl)ncnc21 (centres undefined) shows IC50 below 40 µM.
Response: MET

Query: # strict comparison: is reported IC50 < 40 µM? input = O=S1(=O)CC(n2cnc3c(Cl)ncnc32)OCc2ccccc21 (centres undefined)
Response: MET

====

Tested on: MCF7
Assay: Antiproliferative activity against human MCF7 cells
Format: functional, cell-based
Settings: Homo sapiens, MCF7
Rule for this label: class 1 means IC50 is less than 2000 nM; class 0 means IC50 is at least 2000 nM.

Query: Is IC50 of Clc1nc(Cl)c2c(ncn2C2COc3ccccc3CO2)n1 (stereo not given) strictly below 2000 nM?
Response: class 1

Query: Determine whether this molecule shows IC50 lower than 2000 nM (ties excluded): Ic1ncnc2ncn(C3COc4ccccc4CO3)c12 (stereo not given)
Response: class 1

Query: Input Ic1ncnc2c1ncn2C1COc2ccccc2CO1 (stereo not given) ; condition: IC50 strictly below 2000 nM. Does it hold?
Response: class 1

Query: Please check: IC50 for COC(CNc1ccccc1CO)n1cc(F)c(=O)[nH]c1=O (stereo not given) , strictly under 2000 nM or not?
Response: class 0

Query: Please check: IC50 for Nc1ccccc1S(=O)(=O)N1CC(n2cc(F)c(=O)[nH]c2=O)OCc2ccccc21 (stereo not given) , strictly under 2000 nM or not?
Response: class 0

Query: For Nc1ccc(S(=O)(=O)N2CC(n3cc(F)c(=O)[nH]c3=O)OCc3ccccc32)cc1 (stereo not given) , is the recorded IC50 below the cut-off of 2000 nM?
Response: class 0

Query: Determine whether this molecule shows IC50 lower than 2000 nM (ties excluded): O=[N+]([O-])c1ccccc1S(=O)(=O)N1CC(n2cnc3ncnc(Cl)c32)OCc2ccccc21 (stereo not given)
Response: class 1

Query: Confirm or reject: IC50 of O=[N+]([O-])c1ccccc1S(=O)(=O)N1CC(n2cnc3c(Cl)ncnc32)OCc2ccccc21 (stereo not given) lies strictly below 2000 nM
Response: class 0

Query: # TODO verify IC50 < 2000 nM strictly for this molecule: O=[N+]([O-])c1ccc(S(=O)(=O)N2CC(n3cnc4c(Cl)ncnc43)OCc3ccccc32)cc1 (stereo not given)
Response: class 0

Query: In the record for Nc1ccccc1S(=O)(=O)N1CC(n2cnc3ncnc(Cl)c32)OCc2ccccc21 (stereo not given) , is IC50 less than 2000 nM?
Response: class 0

Query: Say whether its IC50 is strictly beneath 2000 nM. Entry: O=[N+]([O-])c1ccc(S(=O)(=O)N2CC(n3cnc4ncnc(Sc5ccccc5)c43)OCc3ccccc32)cc1 (stereo not given)
Response: class 1

Query: Record Clc1ncnc2c1ncn2C1COc2ccccc2CO1 (stereo not given) : is its IC50 strictly below 2000 nM?
Response: class 1

Query: Strictly below 2000 nM: is that where IC50 of Clc1ncnc2ncn(C3CSc4ccccc4CO3)c12 (stereo not given) sits?
Response: class 1

Query: hey, is IC50 for O=[N+]([O-])c1ccc(S(=O)(=O)N2CC(n3cnc4ncnc(O)c43)OCc3ccccc32)cc1 (stereo not given) lower than 2000 nM or not?
Response: class 0

Query: Does COC(CN(c1ccccc1CO)S(=O)(=O)c1ccccc1[N+](=O)[O-])n1ccc(=O)[nH]c1=O (stereo not given) have IC50 strictly under 2000 nM?
Response: class 0

Query: Check if IC50 falls below 2000 nM for c1ccc(Sc2ncnc3ncn(C4CNc5ccccc5CO4)c23)cc1 (stereo not given) .
Response: class 0

Query: IC50 under 2000 nM? Item: O=C(OCC1c2ccccc2-c2ccccc21)N1CC(n2cnc3ncnc(Cl)c32)OCc2ccccc21 (stereo not given)
Response: class 1

Query: Please indicate whether the reported IC50 of O=c1[nH]cc(F)c(=O)n1C1CN(S(=O)(=O)c2ccccc2[N+](=O)[O-])c2ccccc2CO1 (stereo not given) is strictly below 2000 nM.
Response: class 0

Query: Please let me know if O=c1cc[nH]c(=O)n1C1CN(S(=O)(=O)c2ccccc2[N+](=O)[O-])c2ccccc2CO1 (stereo not given) shows IC50 below 2000 nM.
Response: class 0

Query: # check: IC50 < 2000 nM for COC(CN(c1ccccc1CO)S(=O)(=O)c1ccc([N+](=O)[O-])cc1)n1c(=O)cc[nH]c1=O (stereo not given)
Response: class 0

====

Give pIC50 for every item shown.
Test system: MCF7
Assay: Antiproliferative activity against human MCF7 cells
Assay type: functional, cell-based
Details: Homo sapiens, MCF7
pIC50 (log units): -log10 of the concentration in mol/L.

Query: Kindly indicate its recorded pIC50. Item: O=c1cc[nH]c(=O)n1C1CN(S(=O)(=O)c2ccc([N+](=O)[O-])cc2)c2ccccc2CO1 (centres undefined)
Response: 4.35

Query: Could you please provide reported pIC50 for O=c1[nH]c(=O)n(C2CN(S(=O)(=O)c3ccc([N+](=O)[O-])cc3)c3ccccc3CO2)cc1F (centres undefined) ? Thanks!
Response: 4.71

Query: Give pIC50 for Clc1ncnc2c1ncn2C1CSc2ccccc2CO1 (centres undefined)
Response: 5.90

====

System: MCF7
Assay: Antiproliferative activity against human MCF7 cells
Type: functional, cell-based
Conditions: Homo sapiens, MCF7
Kindly state IC50 for each of the entries shown.

Query: Answer with the recorded IC50 for the molecule listed here: O=C(OCC1c2ccccc2-c2ccccc21)N1CC(n2cnc3c(Cl)ncnc32)OCc2ccccc21 (racemic)
Response: 0.67 µM

Query: Retrieve IC50 measured for O=c1[nH]c(=O)n(C2CN(S(=O)(=O)c3ccccc3[N+](=O)[O-])c3ccccc3CO2)cc1F (centres undefined) and print it.
Response: 19.7 µM

Query: Given O=[N+]([O-])c1ccccc1S(=O)(=O)N1CC(n2cnc3ncnc(Sc4ccccc4)c32)OCc2ccccc21 (centres undefined) , respond with its IC50.
Response: 2.59 µM

Query: Check the records and state IC50 for COC(CN(c1ccccc1CO)S(=O)(=O)c1ccc([N+](=O)[O-])cc1)n1ccc(=O)[nH]c1=O (centres undefined)
Response: 45.8 µM

Query: Query IC50 for Nc1ccccc1S(=O)(=O)N1CC(n2c(=O)[nH]cc(F)c2=O)OCc2ccccc21 (centres undefined)
Response: 43.7 µM

Query: Check the records and state IC50 for FC(F)(F)c1ncnc2c1ncn2C1COc2ccccc2CO1 (centres undefined)
Response: 1.25 µM

Query: Return value of IC50 for input COC(CN(C(=O)c1ccccc1)c1ccccc1CO)n1cc(F)c(=O)[nH]c1=O (centres undefined) , no commentary.
Response: 16.1 µM

Query: Recall and state the measured IC50 for O=c1[nH]cc(F)c(=O)n1C1CNc2ccccc2CO1 (centres undefined) .
Response: 72.4 µM

Query: Input O=c1ccn(C2COc3ccccc3CO2)c(=O)[nH]1 (centres undefined) , output reported IC50.
Response: 1.25 µM
